B1: library; numbered along this chain (parent)
chain: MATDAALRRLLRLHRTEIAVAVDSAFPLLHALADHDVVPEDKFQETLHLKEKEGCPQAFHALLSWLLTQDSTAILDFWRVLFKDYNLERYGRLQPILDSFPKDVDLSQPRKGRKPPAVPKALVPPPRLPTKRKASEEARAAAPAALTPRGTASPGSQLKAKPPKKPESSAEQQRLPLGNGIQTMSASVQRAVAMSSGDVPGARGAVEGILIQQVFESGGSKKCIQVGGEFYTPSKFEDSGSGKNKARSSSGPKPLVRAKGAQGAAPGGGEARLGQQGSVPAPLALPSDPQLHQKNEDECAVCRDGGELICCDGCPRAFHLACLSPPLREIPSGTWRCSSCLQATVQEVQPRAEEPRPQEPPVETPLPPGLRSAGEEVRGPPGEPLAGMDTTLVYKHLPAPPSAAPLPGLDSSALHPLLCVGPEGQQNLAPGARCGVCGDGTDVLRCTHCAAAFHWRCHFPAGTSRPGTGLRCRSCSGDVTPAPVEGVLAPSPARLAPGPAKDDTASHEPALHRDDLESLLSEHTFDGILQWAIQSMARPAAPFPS

Variants of: B1
TEST_NAME: AIRE transcriptional activation functional score (insulin promoter-GFP; nonsense median 0, synonymous median 1) (normalised score); higher = higher AIRE activity (more reporter activation)
CONDITION_PARAMETERS: with insulin promoter-GFP reporter in HEK293
Binary classification by AIRE transcriptional activation functional score, with 0.6 as an inclusive lower bound for condition met; all other cases are condition not met.

Before answering, review these 2 worked examples.
A205E ... condition met
N244V ... condition not met

query: AIRE transcriptional activation functional score >= 0.6 for K501F ?
result: condition met

query: AIRE transcriptional activation functional score >= 0.6 for A33V ?
result: condition met

query: AIRE transcriptional activation functional score >= 0.6 for L341F ?
result: condition met
